The entries below come with measured %Inh values attached.
- Tested on: PCTK3;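 note: KINOMEscan kinase panel screen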
- Construct: gene CDK18
- assay_setup: concentration: 1 μM, replicates: in singlicate; n = 1
measure: %Inh

[[record]]
compound = "O=C(Nc1n[nH]c2cc(-c3cccc(F)c3F)ccc12)C1CC1"
recorded_measurement = "5%"

[[record]]
compound = "O=C(Nc1ccc2c(c1)OCO2)NC1CCN(c2ccnc(Nc3ccc(F)cc3)n2)C1 (stereo not shown)"
recorded_measurement = "3%"

[[record]]
compound = "COc1ccccc1CNC(=O)c1cc(C(=O)c2ccccc2C)c[nH]1"
recorded_measurement = "27%"

[[record]]
compound = "COc1cc2ncnc(Nc3ccc4nc(-c5ccccc5)[nH]c4c3)c2cc1OC.Cl"
recorded_measurement = "1%"

[[record]]
compound = "Fc1cc(Cl)ccc1Nc1ccnc2cc(I)ccc12"
recorded_measurement = "0%"

[[record]]
compound = "O=C(O)COc1ncnc2cc(-c3ccc4[nH]ncc4c3)sc12"
recorded_measurement = "0%"

[[record]]
compound = "O=C(Nc1n[nH]c2nc(-c3nccs3)c(Br)cc12)C1CCCC1"
recorded_measurement = "50%"

[[record]]
compound = "COc1cc2ncn(-c3cc(OCC4CCCO4)c(C(N)=O)s3)c2cc1OC (stereo not shown)"
recorded_measurement = "0%"

[[record]]
compound = "CN1C(=O)C(Nc2ccc(Cl)c(C(=O)O)c2)=C(c2ccc(Cl)cc2)C1=O"
recorded_measurement = "0%"

[[record]]
compound = "NC(=O)c1nnc2ccccc2c1N"
recorded_measurement = "7%"

